Just for reference, paper PMC7822874 is where these values come from.

system: luciferase-expressing P. berghei liver stage parasites in HepG2 cells; experiment: Inhibition of liver-stage development assay (ILSDA), Method 2 (WRAIR, 96-well); type: cell-based, Plasmodium berghei; conditions: Plasmodium berghei, HepG2, Method 2; log10 of molar AC50 from Hill fit; read-out: Log AC50 (converted)
Decide using AC50 alone. Strictly below 400 nM: Yes. Equal to or above 400 nM: No.

Before answering, review these 8 worked examples.
compound	answer.label
CCO.Nc1nc(N)c2cc(Sc3ccc4ccccc4c3)ccc2n1	No
Cc1cccc(N2CCN(c3nc4ccccc4c4nnc(C)n34)CC2)c1C	Yes
N=c1c2ccccc2nnn1-c1ccc(C(F)(F)F)cc1	No
CCC(CC)c1cc([C@H]2CN3CC[C@H]2C[C@@H]3CNC(=O)Cc2cccs2)nc(-c2ccncc2)n1	Yes
O=C1c2ccccc2C2=Nc3ccccc3SC(c3ccc(Cl)cc3)C12 (stereo not shown)	No
COc1ccc(C2=Nn3c([n+](C)c4ccccc43)SC2)cc1	No
Cc1ccc(-c2nn3c(=O)c4c([nH]c3c2C)CCCC4)cc1	Yes
CCCCCCCc1c(C)[nH]c(N2CCOCC2)nc1=O	No

Now for a further compound.
Query string: Confirm or reject: AC50 of O=C(NC1CC1)c1ccc(CSCc2ccccc2Cl)o1 lies strictly below 400 nM
Result string: Yes
